test system: Mel-DCC-11-R; test: cell viability relative to DMSO control (fraction of DMSO control); higher = less cytotoxic, active = 0.8 or less; conditions: 1 µM; 120 h; vemurafenib co-treatment 8 µM
Please reply with one of these outcomes: t for active, f for inactive

Example entries begin here.
{"columns": ["molecule", "categoryLabel"],
 "data": [
  ["NCCCNCCSP(=O)(O)O", "f"],
  ["COc1cc([C@@H]2c3cc4c(cc3[C@H](O)[C@H]3COC(=O)[C@H]23)OCO4)cc(OC)c1OC", "t"],
  ["Cn1cc(C2=C(c3cn(C4CCN(Cc5ccccn5)CC4)c4ccccc34)C(=O)NC2=O)c2ccccc21", "f"]
]}

Please find the next molecule below.
Query: Call for entry CC(O)(CS(=O)(=O)c1ccc(F)cc1)C(=O)Nc1ccc(C#N)c(C(F)(F)F)c1 (centres undefined) [Bicalutamide] :
Reply: f

###

test system: NHEM-hTERT; experiment: cell viability relative to DMSO control (fraction of DMSO control); higher = less cytotoxic, active = 0.5 or less; details: 1 µM; 120 h
Entries whose cell viability is below 1 take Fulfilled; entries at or above 1 take Not fulfilled.

{"columns": ["compound", "categoryLabel"],
 "data": [
  ["Cl.N[C@@H]1C[C@H]1c1ccccc1 [Tranylcypromine (2-PCPA) hydrochloride]", "Fulfilled"],
  ["C=C1C[C@@H]2[C@H](CC[C@]3(C)C(=O)CC[C@@H]23)[C@@]2(C)C=CC(=O)C=C12", "Fulfilled"],
  ["CCC1(c2ccc(N)cc2)CCC(=O)NC1=O (configuration not stated) [Aminoglutethimide]", "Not fulfilled"]
]}

Please find the next compound below.
Query: Does the reported cell viability of C/C=C(\C)C(=O)N[C@@H](c1ccccc1)[C@@H](O)C(=O)O[C@H]1C[C@@]2(O)[C@@H](OC(=O)c3ccccc3)[C@@H]3[C@]4(OC(C)=O)CO[C@@H]4C[C@H](O)[C@@]3(C)C(=O)[C@H](OC(C)=O)C(=C1C)C2(C)C stay below 1?
Reply: Fulfilled

###

test system: Mel-DCC-11-R; assay: cell viability relative to DMSO control (fraction of DMSO control); higher = less cytotoxic, active = 0.8 or less; details: 1 µM; 120 h; vemurafenib co-treatment 0 µM
cell viability values, listed per item
Reply briefly: the number, and no unit.

{"columns": ["compound", "value"],
 "data": [
  ["N[C@@H](Cc1ccc(N(CCCl)CCCl)cc1)C(=O)O [Melphalan]", 1.17],
  ["Cl.Cn1c(CCCC(=O)O)nc2cc(N(CCCl)CCCl)ccc21 [Bendamustine hydrochloride]", 0.822],
  ["O.O=P1(N(CCCl)CCCl)NCCCO1 (centres undefined) [Cyclophosphamide monohydrate]", 0.857],
  ["COC(=O)Nc1nc2ccccc2[nH]1 [Carbendazim]", 0.917],
  ["C[C@]12CCC(=O)C(O)=C1CC[C@@H]1[C@@H]2CC[C@]2(C)C(=O)CC[C@@H]12 [Formestane]", 0.922],
  ["C[C@]12CC[C@H]3[C@@H](CC[C@@]45O[C@@H]4C(O)=C(C#N)C[C@]35C)[C@@H]1CC[C@@H]2O [Trilostane]", 1.03]
]}

Next compound, please.
Query: Short answer please: cell viability, Mel-DCC-11-R, entry NCCCNCCSP(=O)(O)O [Amifostine]
Reply: 0.934
